Target: Coagulation factor VII/tissue factor (Homo sapiens, UniProt P08709)
Sequence (P08709 61-212 limits assumed): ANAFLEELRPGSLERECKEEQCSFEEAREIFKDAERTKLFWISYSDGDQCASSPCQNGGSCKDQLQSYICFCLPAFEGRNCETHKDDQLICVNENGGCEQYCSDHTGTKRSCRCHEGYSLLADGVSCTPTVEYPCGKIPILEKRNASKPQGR
Sequence (P08709 213-466 limits assumed): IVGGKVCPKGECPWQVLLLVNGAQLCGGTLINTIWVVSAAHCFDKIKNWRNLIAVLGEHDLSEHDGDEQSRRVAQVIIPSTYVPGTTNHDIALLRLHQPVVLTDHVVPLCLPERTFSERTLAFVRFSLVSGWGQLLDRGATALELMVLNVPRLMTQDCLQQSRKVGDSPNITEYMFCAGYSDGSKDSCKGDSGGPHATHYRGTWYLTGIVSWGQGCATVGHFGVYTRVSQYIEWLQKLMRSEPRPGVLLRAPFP
Sequence (P13726 33-295 partner limits assumed): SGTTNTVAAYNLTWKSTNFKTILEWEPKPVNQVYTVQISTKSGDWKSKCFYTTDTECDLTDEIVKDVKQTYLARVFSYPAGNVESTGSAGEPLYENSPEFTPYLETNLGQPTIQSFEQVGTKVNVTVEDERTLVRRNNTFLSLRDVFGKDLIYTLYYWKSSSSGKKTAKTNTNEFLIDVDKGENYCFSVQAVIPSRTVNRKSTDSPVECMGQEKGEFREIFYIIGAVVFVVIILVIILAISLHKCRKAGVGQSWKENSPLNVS
Test: Inhibition of recombinant human Tissue factor/factor 7a using S2288 as substrate after 30 to 60 mins
METRIC_NAME: Ki (nM)
Your answer should be a plain number; it is taken to be in nM.

Sample records with Ki:
input: Give the reported value of Ki for this record: C[C@H]1COC(=O)Nc2cccc(c2)CNC(=O)C(Nc2ccc3c(N)nccc3c2)c2ccc1cc2 (stereo not given in full)
output: 140

input: Give the reported value of Ki for this record: Cc1cc2ccc1[C@@H](C)COC(=O)Nc1cccc(c1)CNC(=O)[C@@H]2Nc1ccc2c(N)nccc2c1
output: 1.4

input: Give the reported value of Ki for this record: C[C@@H]1COC(=O)Nc2cccc(c2)CNC(=O)C(Nc2ccc3c(N)nccc3c2)c2ccc1cc2 (stereo not given in full)
output: 1450

input: Give the reported value of Ki for this record: Nc1nccc2cc(NC3C(=O)NCc4cccc(c4)NC(=O)OCCc4ccc3cc4)ccc12 (stereo not given)
output: 510

Attention now shifts to the item below.
input: Give the reported value of Ki for this record: Cc1cc2ccc1[C@@H](C)COC(=O)Nc1cccc(c1)CNC(=O)[C@H]2Nc1ccc2c(N)nccc2c1
output: 4510

----------
Target: Coagulation factor X (Homo sapiens, UniProt P00742)
Sequence (P00742 41-179 limits assumed): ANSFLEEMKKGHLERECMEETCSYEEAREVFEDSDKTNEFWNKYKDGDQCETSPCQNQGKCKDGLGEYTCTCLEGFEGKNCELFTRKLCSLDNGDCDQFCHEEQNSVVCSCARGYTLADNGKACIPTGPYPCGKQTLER
Sequence (P00742 235-488 limits assumed): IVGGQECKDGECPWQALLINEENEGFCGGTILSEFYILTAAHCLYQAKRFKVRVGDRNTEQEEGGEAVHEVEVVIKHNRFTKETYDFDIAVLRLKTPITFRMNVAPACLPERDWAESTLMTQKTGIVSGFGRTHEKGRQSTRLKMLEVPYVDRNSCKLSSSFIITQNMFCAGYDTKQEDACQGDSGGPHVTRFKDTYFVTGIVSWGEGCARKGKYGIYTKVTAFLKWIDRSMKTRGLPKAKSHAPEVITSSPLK
METRIC_NAME: Ki (µM)
Your answer should be a plain number; it is taken to be in µM.

Sample records with Ki:
input: Check Coagulation factor X (Homo sapiens, UniProt P00742) data and give Ki for CC1COC(=O)Nc2cccc(c2)CNC(=O)C(Nc2ccc3c(N)nccc3c2)c2ccc1cc2 (centres undefined) .
output: 2.6

input: Check Coagulation factor X (Homo sapiens, UniProt P00742) data and give Ki for C[C@H]1COC(=O)Nc2cccc(c2)CNC(=O)C(Nc2ccc3c(N)nccc3c2)c2ccc1cc2 (some centres undefined) .
output: 4.5

input: Check Coagulation factor X (Homo sapiens, UniProt P00742) data and give Ki for Nc1nccc2cc(NC3C(=O)NCc4cccc(c4)NC(=O)OCCc4ccc3cc4)ccc12 (centres undefined) .
output: 0.61

Attention now shifts to the item below.
input: Check Coagulation factor X (Homo sapiens, UniProt P00742) data and give Ki for C[C@@H]1COC(=O)Nc2cccc(c2)CNC(=O)C(Nc2ccc3c(N)nccc3c2)c2ccc1cc2 (some centres undefined) .
output: 6.8

----------
Target: Kallikrein-1 (Homo sapiens, UniProt P06870)
Sequence (P06870 whole entry): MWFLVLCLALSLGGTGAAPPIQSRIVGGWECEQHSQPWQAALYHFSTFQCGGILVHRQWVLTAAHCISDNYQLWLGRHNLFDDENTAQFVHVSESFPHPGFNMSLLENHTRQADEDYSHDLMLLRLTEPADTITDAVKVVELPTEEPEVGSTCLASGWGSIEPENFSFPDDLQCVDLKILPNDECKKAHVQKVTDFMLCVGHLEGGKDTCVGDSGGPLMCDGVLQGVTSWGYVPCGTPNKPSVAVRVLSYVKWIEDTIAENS
METRIC_NAME: Ki (nM)
Your answer should be a plain number; it is taken to be in nM.

input: Give the reported value of Ki for this record: C[C@H]1COC(=O)Nc2cccc(c2)CNC(=O)C(Nc2ccc3c(N)nccc3c2)c2ccc1cc2 (stereo partly drawn)
output: 25

input: Give the reported value of Ki for this record: Cc1cc2ccc1[C@@H](C)COC(=O)Nc1cccc(c1)CNC(=O)[C@@H]2Nc1ccc2c(N)nccc2c1
output: 25

input: Give the reported value of Ki for this record: Nc1nccc2cc(NC3C(=O)NCc4cccc(c4)NC(=O)OCCc4ccc3cc4)ccc12 (stereo not drawn)
output: 35

----------
Biological target: Trypsin (Homo sapiens, UniProt P07477+P07478+P35030)
Assay: Inhibition of purified human trypsin after 30 to 60 mins
Assay type: protein assay
// Ki lookup, one value per entry

Sample records with Ki:
input: Give the reported value of Ki for this record: Cc1cc2ccc1[C@@H](C)COC(=O)Nc1cccc(c1)CNC(=O)[C@@H]2Nc1ccc2c(N)nccc2c1
output: > 10 µM

input: Give the reported value of Ki for this record: C[C@@H]1COC(=O)Nc2cccc(c2)CNC(=O)C(Nc2ccc3c(N)nccc3c2)c2ccc1cc2 (stereo not given in full)
output: > 6.2 µM

input: Give the reported value of Ki for this record: Cc1cc2ccc1[C@@H](C)COC(=O)Nc1cccc(c1)CNC(=O)[C@H]2Nc1ccc2c(N)nccc2c1
output: > 10 µM

input: Give the reported value of Ki for this record: C[C@H]1COC(=O)Nc2cccc(c2)CNC(=O)C(Nc2ccc3c(N)nccc3c2)c2ccc1cc2 (stereo not given in full)
output: > 6.2 µM

Attention now shifts to the item below.
input: Give the reported value of Ki for this record: Nc1nccc2cc(NC3C(=O)NCc4cccc(c4)NC(=O)OCCc4ccc3cc4)ccc12 (stereo not given)
output: 3.5 µM
